src = the supplement of paper PMC10567573

B1: NP_116010.1 (parent)
chain: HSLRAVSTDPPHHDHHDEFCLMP

Variants of: B1
method_notes: protein stability index of a GFP-peptide fusion (GPS, HEK-293T) (PSI 1-6); higher = more stable;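 note: lentivirally expressed fusion library, cells FACS-sorted into six equal-sized GFP/DsRed ratio bins, PSI computed from sequencing read fractions per bin weighted by bin number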
stated_conditions: c terminus: native
Label True when protein stability index is at or above 3; anything below gets False.

>>> print(df.to_string())
   alteration    cat
0        H16M  False
1        D17R  False
2        C20Q  False
3        H15R  False
4        D17M  False
5        C20N   True
6        H16Y  False
7        P23G   True
8         S2L  False
9         R4V  False

stdin: Entry H12R : is its protein stability index no less than 3?
stdout: False

stdin: Could you tell me if the measured protein stability index of H15M reaches 3 or more?
stdout: False
